Ref: PubChem BioAssay AID504832

- method description: Primary qHTS for delayed death inhibitors of the malarial parasite plastid, 48 hour incubation
- condition notes: P. falciparum luciferase growth in erythrocytes; series mostly up to 28.7 µM
Screen size: about 310,000 compounds; about 18,000 (5.8%) were called active. Inconclusive results (about 22%) are left out. The sample as a whole holds a higher share of actives than the screen did.
attribute measured: outcome

>>> result("O=C1N=C(N2CCOCC2)S/C1=C\\C=C/c1ccccc1")
"inactive"
>>> result("CC1(C)CC(=O)C=C(Nc2ccccc2)C1")
"inactive"
>>> result("CCc1cccc(C)c1NC(=O)COC(=O)CC1CCCC1")
"inactive"

###

- method description: Primary qHTS for delayed death inhibitors of the malarial parasite plastid, 48 hour incubation; further: potency means the concentration at half of the fitted maximal effect
- condition notes: P. falciparum luciferase growth in erythrocytes; series mostly up to 28.7 µM
Hit rate of the full screen: of about 310,000 compounds, about 18,000 (5.8%) were called active. Inconclusive results (about 22%) are left out. This is one part of a sample in which actives are shown more often than they occur.
attribute measured: Potency

>>> result("COc1ccccc1N1CC(C(=O)Nc2nnc(SCC(=O)NCC3CCCO3)s2)CC1=O (stereo not given)")
"inactive"
>>> result("COc1ccc(/C=C/C(=O)Nc2cccnc2)cc1OC")
"inactive"
>>> result("O=C(NCc1ccccc1)C1C(=O)N(Cc2ccccc2)C(=O)C1C1(O)CCCC1 (stereo not given)")
"inactive"
>>> result("COc1ccc(-c2c3c(=O)n(C)c(=O)n(C)c3cn2-c2cccc(OC)c2)cc1")
"11.7 µM (active)"
>>> result("COc1ccc(-c2c3c(=O)n(C)c(=O)n(C)c3cn2NC(C)=O)cc1")
"inactive"
>>> result("COc1cccc(C(=O)Nc2cccnc2)c1OC")
"inactive"
>>> result("COc1ccc(NC(=O)CN(C)CC(=O)Nc2cccc(C(F)(F)F)c2)cc1")
"inactive"
>>> result("CCOC(=O)CN1C(=O)N[C@@H](c2ccc(Br)cc2)C(C(C)=O)=C1C")
"inactive"
>>> result("Nn1c(SCC(=O)Nc2nccs2)nnc1-c1ccco1")
"inactive"
>>> result("CCOC(=O)C1=C(C)N=C2c3ccccc3C(=O)C2C1c1ccc(Br)cc1 (stereo not given)")
"9.28 µM (active)"
>>> result("CSc1ccccc1NC(=O)c1ccc2c(c1)CCN2S(C)(=O)=O")
"inactive"
>>> result("O=C(NCCS(=O)(=O)c1ccc(Br)cc1)c1ccccc1Cl")
"inactive"
>>> result("Cc1c(CCOC(=O)CC23CC4CC(CC(C)(C4)C2)C3)sc[n+]1Cc1ccc([N+](=O)[O-])cc1")
"2.62 µM (active)"
>>> result("Cc1ccc(NS(=O)(=O)c2ccc(-c3coc(C)n3)cc2)c(C)c1")
"inactive"
>>> result("Cc1c(CCOC(=O)c2cc([N+](=O)[O-])ccc2Cl)sc[n+]1CCCCS(=O)(=O)[O-]")
"inactive"
>>> result("COc1cccc(-n2cc3c(c2-c2ccccc2)c(=O)n(C)c(=O)n3C)c1")
"5.22 µM (active)"
>>> result("CC(=O)N1CCN(C(=O)c2cc(-c3ccc(C)o3)nc3ccccc23)CC1")
"inactive"
>>> result("COc1cccc(-n2cc(C(=O)O)c3ccccc3c2=O)c1")
"inactive"
>>> result("Cn1c(=O)c2c(ncn2CC(=O)N2CCN(c3ccccc3)CC2)n(C)c1=O")
"inactive"
>>> result("CCCCc1nc2cc(C(=O)N3CCCCC3CCO)ccc2o1 (stereo not given)")
"inactive"
>>> result("CCNC(=O)N1CCCC(C(=O)c2ccc(-c3ccccc3)cc2)C1 (stereo not given)")
"inactive"
>>> result("O=C(COc1coc(CN2CCN(c3ccccc3F)CC2)cc1=O)N1CCc2ccccc21")
"inactive"
>>> result("CCN1C(=O)[C@@H]2[C@@H](c3ccc(-c4cccc(Cl)c4)cc3)N3CCC[C@@]3(C(=O)OC)[C@@H]2C1=O")
"11.7 µM (active)"
>>> result("CC(C)Nc1ccc(-n2nc3ccccc3[n+]2[O-])cc1")
"inactive"
>>> result("CCn1nc(C)c(NC(=O)/C=C/c2ccc(OC)c(COc3ccc(Br)cc3)c2)c1C")
"8.28 µM (active)"
>>> result("COc1ccc(C(C)=O)cc1COc1ccc(Cl)c(C)c1")
"inactive"
>>> result("CC(=O)Oc1cccc(N2C(=O)CC(Nc3ccc(N4CCOCC4)cc3)C2=O)c1 (stereo not given)")
"inactive"
>>> result("COc1ccc(CCNC(=O)C(=O)NCC2OCCN2S(=O)(=O)c2ccc(OC)c(C)c2)cc1 (stereo not given)")
"inactive"
>>> result("CCc1ccccc1NC(=O)c1cccs1")
"inactive"
>>> result("O=C1C(Cc2ccc(O)cc2)NC(=S)N1Cc1ccccc1 (stereo not given)")
"2.94 µM (active)"
